Molecular target: PKCα (Homo sapiens)
Assay: PKCα kinase Caliper assay
Format: biochemical
Details: read-out: PKC IC50
Each entry below carries its reported log10 IC50.
All values: log10 IC50 [nM].

Recorded results for 4 compounds are shown here.
> print(dat)
                        structure.as.smiles         study.target  measurement
1  Nc1ncc(-c2ccccc2)nc1C(=O)Nc1cnccc1[C@H]1C[C@@H](O)[C@@]2(O)CCC[C@H]2O1  PKCα (Homo sapiens)         2.36
2  Nc1ncc(-c2ccccc2)nc1C(=O)Nc1cnccc1[C@@H]1C[C@H](O)[C@]2(O)CCC[C@@H]2O1  PKCα (Homo sapiens)         2.88
3  C=C1[C@@H](O)C[C@@H](c2ccncc2NC(=O)c2nc(-c3ccccc3)cnc2N)OC12CC2  PKCα (Homo sapiens)         1.78
4  Nc1ncc(-c2ccccc2)nc1C(=O)Nc1cnccc1[C@H]1C[C@@H](O)[C@@]2(O)CCCC[C@H]2O1  PKCα (Homo sapiens)         2.49

Let us examine a further case.
For the compound C[C@@H]1O[C@H](c2ccncc2NC(=O)c2nc(-c3ccccc3)cnc2N)C[C@H](O)[C@@]1(C)O , what log10 IC50 is on record? 2.90

These measurements were taken from patent US20130109682A1.
